- Method: Biodistribution experiments in normal mice after i.v. injection
- Type: in vivo
- Applied Conditions: male, ddY, mouse, in vivo, iv, total radioactivity, mice, i.v., 10 min after injection, mean (SD); read-out: Biodistribution of radioactivity, Pancreas
Where a SMILES comes first, the peptide text is derived from it. [ ]: non-standard residue; d: D form. The star is where a group is joined. DOTA = O=C(O)CN1CCN(CC(=O)O)CCN(CC(=O)*)CCN(CC(=O)O)CC1
Measured Attribute: tissue uptake dose at 10 min (%ID)
State the answer as a number, implicitly in %ID.

In: Return value of tissue uptake dose at 10 min for input O=C(O)C[C@@H](NC(=O)[C@@H](CC(=O)O)NC(=O)[C@@H](CC(=O)O)NC(=O)[C@@H](CC(=O)O)NC(=O)[C@@H](CC(=O)O)NC(=O)[C@@H](CC(=O)O)NC(=O)[C@@H](CC(=O)O)NC(=O)[C@@H](CC(=O)O)NC(=O)[C@@H](CC(=O)O)NC(=O)[C@@H](CC(=O)O)NC(=O)[C@@H](CC(=O)O)NC(=O)CN1CCN(CC(=O)O)CCN(CC(=O)O)CCN(CC(=O)O)CC1)C(=O)O [^67Ga-DOTA-(D-Asp)11, metal not drawn] ({DOTA}-[dD][dD][dD][dD][dD][dD][dD][dD][dD][dD][dD]-OH) , no commentary.
Out: 0.53

###

- Method: Biodistribution experiments in normal mice after i.v. injection
- Format: in vivo
- Applied Conditions: male, ddY, mouse, in vivo, iv, total radioactivity, mice, i.v., 60 min after injection, mean (SD); read-out: Biodistribution of radioactivity, Blood
Where a SMILES comes first, the peptide text is derived from it. [ ]: non-standard residue; d: D form. The star is where a group is joined. DOTA = O=C(O)CN1CCN(CC(=O)O)CCN(CC(=O)*)CCN(CC(=O)O)CC1
Measured Attribute: tissue uptake dose at 1 h (%ID)
State the answer as a number, implicitly in %ID.

In: Return value of tissue uptake dose at 1 h for input O=C(O)C[C@@H](NC(=O)[C@@H](CC(=O)O)NC(=O)[C@@H](CC(=O)O)NC(=O)[C@@H](CC(=O)O)NC(=O)[C@@H](CC(=O)O)NC(=O)[C@@H](CC(=O)O)NC(=O)[C@@H](CC(=O)O)NC(=O)[C@@H](CC(=O)O)NC(=O)[C@@H](CC(=O)O)NC(=O)[C@@H](CC(=O)O)NC(=O)[C@@H](CC(=O)O)NC(=O)CN1CCN(CC(=O)O)CCN(CC(=O)O)CCN(CC(=O)O)CC1)C(=O)O [^67Ga-DOTA-(D-Asp)11, metal not drawn] ({DOTA}-[dD][dD][dD][dD][dD][dD][dD][dD][dD][dD][dD]-OH) , no commentary.
Out: 0.14

###

The entries below come with measured tissue uptake dose at 3 h values attached.
- Method: Biodistribution experiments in normal mice after i.v. injection
- Type: in vivo
- Applied Conditions: male, ddY, mouse, in vivo, iv, total radioactivity, Biodistribution of radioactivity, Pancreas
Where a SMILES comes first, the peptide text is derived from it. [ ]: non-standard residue; d: D form. The star is where a group is joined. DOTA = O=C(O)CN1CCN(CC(=O)O)CCN(CC(=O)*)CCN(CC(=O)O)CC1
State the answer as a number, implicitly in %ID.

O=C(O)C[C@@H](NC(=O)[C@@H](CC(=O)O)NC(=O)[C@@H](CC(=O)O)NC(=O)[C@@H](CC(=O)O)NC(=O)[C@@H](CC(=O)O)NC(=O)[C@@H](CC(=O)O)NC(=O)[C@@H](CC(=O)O)NC(=O)[C@@H](CC(=O)O)NC(=O)CN1CCN(CC(=O)O)CCN(CC(=O)O)CCN(CC(=O)O)CC1)C(=O)O [^67Ga-DOTA-(D-Asp)8, metal not drawn] ({DOTA}-[dD][dD][dD][dD][dD][dD][dD][dD]-OH)    0.08
O=C(O)C[C@@H](NC(=O)[C@@H](CC(=O)O)NC(=O)CN1CCN(CC(=O)O)CCN(CC(=O)O)CCN(CC(=O)O)CC1)C(=O)O [^67Ga-DOTA-(D-Asp)2, metal not drawn] ({DOTA}-[dD]-[dD]-OH)    0.09
O=C(O)CC[C@@H](NC(=O)[C@@H](CCC(=O)O)NC(=O)[C@@H](CCC(=O)O)NC(=O)[C@@H](CCC(=O)O)NC(=O)[C@@H](CCC(=O)O)NC(=O)[C@@H](CCC(=O)O)NC(=O)[C@@H](CCC(=O)O)NC(=O)[C@@H](CCC(=O)O)NC(=O)[C@@H](CCC(=O)O)NC(=O)[C@@H](CCC(=O)O)NC(=O)[C@@H](CCC(=O)O)NC(=O)[C@@H](CCC(=O)O)NC(=O)[C@@H](CCC(=O)O)NC(=O)[C@@H](CCC(=O)O)NC(=O)CN1CCN(CC(=O)O)CCN(CC(=O)O)CCN(CC(=O)O)CC1)C(=O)O [^67Ga-DOTA-(D-Glu)14, metal not drawn]    0.06

Continue with the molecule presented below.
In: Return value of tissue uptake dose at 3 h for input O=C(O)C[C@@H](NC(=O)[C@@H](CC(=O)O)NC(=O)[C@@H](CC(=O)O)NC(=O)[C@@H](CC(=O)O)NC(=O)[C@@H](CC(=O)O)NC(=O)CN1CCN(CC(=O)O)CCN(CC(=O)O)CCN(CC(=O)O)CC1)C(=O)O [^67Ga-DOTA-(D-Asp)5, metal not drawn] ({DOTA}-[dD][dD][dD][dD][dD]-OH) , no commentary.
Out: 0.06

###

- Method: Biodistribution experiments in normal mice after i.v. injection
- Format: in vivo
- Applied Conditions: male, ddY, mouse, in vivo, iv, total radioactivity, Biodistribution of radioactivity, Large-intestine
Where a SMILES comes first, the peptide text is derived from it. [ ]: non-standard residue; d: D form. The star is where a group is joined. DOTA = O=C(O)CN1CCN(CC(=O)O)CCN(CC(=O)*)CCN(CC(=O)O)CC1
The entries below come with measured tissue uptake dose at 1 h values attached.
State the answer as a number, implicitly in %ID.

See these solved cases before continuing.
O=C(O)CC[C@@H](NC(=O)[C@@H](CCC(=O)O)NC(=O)[C@@H](CCC(=O)O)NC(=O)[C@@H](CCC(=O)O)NC(=O)[C@@H](CCC(=O)O)NC(=O)[C@@H](CCC(=O)O)NC(=O)[C@@H](CCC(=O)O)NC(=O)[C@@H](CCC(=O)O)NC(=O)[C@@H](CCC(=O)O)NC(=O)[C@@H](CCC(=O)O)NC(=O)[C@@H](CCC(=O)O)NC(=O)[C@@H](CCC(=O)O)NC(=O)[C@@H](CCC(=O)O)NC(=O)[C@@H](CCC(=O)O)NC(=O)CN1CCN(CC(=O)O)CCN(CC(=O)O)CCN(CC(=O)O)CC1)C(=O)O [^67Ga-DOTA-(D-Glu)14, metal not drawn]    0.18
O=C(O)C[C@@H](NC(=O)[C@@H](CC(=O)O)NC(=O)[C@@H](CC(=O)O)NC(=O)[C@@H](CC(=O)O)NC(=O)[C@@H](CC(=O)O)NC(=O)CN1CCN(CC(=O)O)CCN(CC(=O)O)CCN(CC(=O)O)CC1)C(=O)O [^67Ga-DOTA-(D-Asp)5, metal not drawn] ({DOTA}-[dD][dD][dD][dD][dD]-OH)    0.22

In: Return value of tissue uptake dose at 1 h for input O=C(O)C[C@@H](NC(=O)[C@@H](CC(=O)O)NC(=O)CN1CCN(CC(=O)O)CCN(CC(=O)O)CCN(CC(=O)O)CC1)C(=O)O [^67Ga-DOTA-(D-Asp)2, metal not drawn] ({DOTA}-[dD]-[dD]-OH) , no commentary.
Out: 0.12

###

- Method: Biodistribution experiments in normal mice after i.v. injection
- Format: in vivo
- Applied Conditions: male, ddY, mouse, in vivo, iv, total radioactivity, Biodistribution of radioactivity, Pancreas
The entries below come with measured tissue uptake dose at 1 h values attached.
State the answer as a number, implicitly in %ID.

O=C(O)CC[C@H](NC(=O)[C@H](CCC(=O)O)NC(=O)[C@H](CCC(=O)O)NC(=O)[C@H](CCC(=O)O)NC(=O)[C@H](CCC(=O)O)NC(=O)[C@H](CCC(=O)O)NC(=O)[C@H](CCC(=O)O)NC(=O)[C@H](CCC(=O)O)NC(=O)[C@H](CCC(=O)O)NC(=O)[C@H](CCC(=O)O)NC(=O)[C@H](CCC(=O)O)NC(=O)[C@H](CCC(=O)O)NC(=O)[C@H](CCC(=O)O)NC(=O)[C@H](CCC(=O)O)NC(=O)CN1CCN(CC(=O)O)CCN(CC(=O)O)CCN(CC(=O)O)CC1)C(=O)O [^67Ga-DOTA-(L-Glu)14, metal not drawn]    0.13

In: Return value of tissue uptake dose at 1 h for input O=C(O)CC[C@@H](NC(=O)[C@@H](CCC(=O)O)NC(=O)[C@@H](CCC(=O)O)NC(=O)[C@@H](CCC(=O)O)NC(=O)[C@@H](CCC(=O)O)NC(=O)[C@@H](CCC(=O)O)NC(=O)[C@@H](CCC(=O)O)NC(=O)[C@@H](CCC(=O)O)NC(=O)[C@@H](CCC(=O)O)NC(=O)[C@@H](CCC(=O)O)NC(=O)[C@@H](CCC(=O)O)NC(=O)[C@@H](CCC(=O)O)NC(=O)[C@@H](CCC(=O)O)NC(=O)[C@@H](CCC(=O)O)NC(=O)CN1CCN(CC(=O)O)CCN(CC(=O)O)CCN(CC(=O)O)CC1)C(=O)O [^67Ga-DOTA-(D-Glu)14, metal not drawn] , no commentary.
Out: 0.13
